# experimentalSystem: OR9Q2 (Homo sapiens, UniProt Q8NGE9)
# Construct: expressed in transfected cells; host or cells: HEK293T cells stably expressing human RTP1S (V227I) and RTP2 (L220R)
# Sequence (Q8NGE9 1-314): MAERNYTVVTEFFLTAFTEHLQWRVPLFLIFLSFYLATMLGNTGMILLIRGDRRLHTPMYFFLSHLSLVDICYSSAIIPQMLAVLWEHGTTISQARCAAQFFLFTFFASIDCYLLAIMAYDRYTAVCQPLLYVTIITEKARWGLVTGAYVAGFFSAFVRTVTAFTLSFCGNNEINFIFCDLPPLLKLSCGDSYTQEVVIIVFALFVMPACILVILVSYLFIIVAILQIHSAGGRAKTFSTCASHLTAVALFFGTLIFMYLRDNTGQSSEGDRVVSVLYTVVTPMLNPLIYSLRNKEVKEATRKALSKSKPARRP
# experimentSummary: Luciferase dose-response, wild-type vs changed C-terminus (SEQ ID NO: 86)
# Assay type: cell-based
# protocolConditions: wild-type; read-out: Potency EC50
experimentalEndpoint: EC50 (µM)
Quick note: give the figure in µM, leave out the unit.

Ask: # input compound: Cc1ccc(O)cc1 [Para-Cresol] ; wanted: its EC50
Reply: 30.7
